Tested System: UniProt P79208
Sequence (P79208 17-603): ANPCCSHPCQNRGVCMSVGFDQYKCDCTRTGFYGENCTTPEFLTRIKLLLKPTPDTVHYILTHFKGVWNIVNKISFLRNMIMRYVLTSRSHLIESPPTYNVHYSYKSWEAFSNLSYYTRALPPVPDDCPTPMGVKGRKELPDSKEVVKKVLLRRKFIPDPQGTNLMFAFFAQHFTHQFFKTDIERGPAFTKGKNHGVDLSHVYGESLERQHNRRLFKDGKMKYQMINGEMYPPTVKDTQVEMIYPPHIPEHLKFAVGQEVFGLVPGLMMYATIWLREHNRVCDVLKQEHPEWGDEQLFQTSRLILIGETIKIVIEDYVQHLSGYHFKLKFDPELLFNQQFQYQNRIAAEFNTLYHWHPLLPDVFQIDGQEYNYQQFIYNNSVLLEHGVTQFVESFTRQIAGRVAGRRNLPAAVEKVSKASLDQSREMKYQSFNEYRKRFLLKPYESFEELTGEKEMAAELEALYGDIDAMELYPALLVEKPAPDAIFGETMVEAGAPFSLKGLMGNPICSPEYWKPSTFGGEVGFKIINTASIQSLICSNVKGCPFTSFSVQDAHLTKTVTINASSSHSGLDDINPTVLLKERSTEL
Quantity Name: IC50

[[record]]
line_notation = "COc1cc(OC)c2c(O)c3c(=O)cc(C)oc3c(-c3c(O)cc4cc(O)c5c(=O)cc(C)oc5c4c3OC)c2c1"
tested_system = "UniProt P79208"
quantity_name = "IC50"
reported_result = "6.4 µM"

